- System: Puccinia recondita f. sp. tritici
- MEASUREMENT DESCRIPTION: Test I: wheat leaf rust on wheat seedlings, sprayed the day before inoculation, visual disease rating
- Assay type: in vivo
- REPORTED CONDITIONS: Puccinia recondita, 168 h; 200 ppm; 100 = 100% disease control, 0 = no control relative to controls
- Text: General protocol for preparing test suspensions for Tests A-J: The test compounds were first dissolved in acetone in an amount equal to 3% of the final volume and then suspended at the desired concentration (in ppm) in acetone and purified water (50/50 mix) containing 250 ppm of the surfactant Trem® 014 (polyhydric alcohol esters). […]
PARAMETER: pest or weed control at 200 ppm (%)

[[record]]
smiles_repr = "COc1ccc(F)c(-c2c(Br)nc(Br)n2-c2ccc(F)cc2)c1F"
parameter = "pest or weed control at 200 ppm"
assay_result = 99

[[record]]
smiles_repr = "Cc1nc(Cl)c(-c2c(F)cccc2F)n1-c1ccc(Cl)cc1"
parameter = "pest or weed control at 200 ppm"
assay_result = 100

[[record]]
smiles_repr = "Cc1nn(C)c(Cc2ccc(F)cc2F)c1-c1ccc(F)cc1Cl"
parameter = "pest or weed control at 200 ppm"
assay_result = 100

[[record]]
smiles_repr = "Fc1cccc(F)c1-c1c(Cl)nc(Cl)n1-c1ccc(Cl)cc1"
parameter = "pest or weed control at 200 ppm"
assay_result = 99

[[record]]
smiles_repr = "Cc1ccc(-n2c(C)nc(Cl)c2-c2c(F)cc(O)cc2F)cc1"
parameter = "pest or weed control at 200 ppm"
assay_result = 99

[[record]]
smiles_repr = "COc1cc(F)c(-c2c(Cl)nc(C=NO)n2-c2ccc(F)cc2)c(F)c1"
parameter = "pest or weed control at 200 ppm"
assay_result = 99

[[record]]
smiles_repr = "O=C(O)Cc1nc(Br)c(-c2c(F)cccc2F)n1-c1ccc(Cl)cc1"
parameter = "pest or weed control at 200 ppm"
assay_result = 13

[[record]]
smiles_repr = "Fc1cccc(F)c1-c1c(Br)nc(CCBr)n1-c1ccc(Cl)cc1"
parameter = "pest or weed control at 200 ppm"
assay_result = 87

[[record]]
smiles_repr = "Cc1nn(C)c(-c2c(F)cccc2F)c1-c1cccc(F)c1"
parameter = "pest or weed control at 200 ppm"
assay_result = 0


----------
- Tested on: Septoria tritici
- MEASUREMENT DESCRIPTION: Test G: wheat leaf blotch on wheat seedlings, sprayed the day before inoculation, visual disease rating
- Assay type: in vivo
- REPORTED CONDITIONS: 40 ppm (marked *); 100 = 100% disease control, 0 = no control
Marks after values point to notes of the source that are not given here.
Listing of recorded Test G disease control rating by entry.
PARAMETER: Test G disease control rating

[[record]]
smiles_repr = "Cc1nc(Cl)n(-c2c(F)cc(F)cc2F)c1-c1ccc(Cl)cc1"
measured_target = "Septoria tritici"
parameter = "Test G disease control rating"
assay_result = "95* %"

[[record]]
smiles_repr = "COc1cc(F)c(-n2cnc(Cl)c2-c2ccc(Cl)cc2)c(F)c1"
measured_target = "Septoria tritici"
parameter = "Test G disease control rating"
assay_result = "89* %"

[[record]]
smiles_repr = "Fc1ccc(-n2c(Br)nc(Br)c2-c2c(F)ccc(F)c2F)cc1"
measured_target = "Septoria tritici"
parameter = "Test G disease control rating"
assay_result = "95* %"

[[record]]
smiles_repr = "CCOc1cc(F)c(-c2c(Cl)nc(C)n2-c2ccc(Cl)cc2)c(F)c1"
measured_target = "Septoria tritici"
parameter = "Test G disease control rating"
assay_result = "97* %"

[[record]]
smiles_repr = "Cc1nc(Cl)n(-c2ccc(Cl)cc2)c1-c1c(F)ccc(F)c1Cl"
measured_target = "Septoria tritici"
parameter = "Test G disease control rating"
assay_result = "96* %"

[[record]]
smiles_repr = "COc1cc(F)c(-n2c(C)nc(C)c2-c2ccc(Cl)cc2)c(F)c1"
measured_target = "Septoria tritici"
parameter = "Test G disease control rating"
assay_result = "93* %"

[[record]]
smiles_repr = "Cc1nc(C)n(-c2ccc(Cl)cc2)c1-c1c(F)ccc(F)c1F"
measured_target = "Septoria tritici"
parameter = "Test G disease control rating"
assay_result = "97* %"

[[record]]
smiles_repr = "Fc1cc(-c2c(CCl)nc(Cl)n2-c2ccc(Cl)c(F)c2)ccn1"
measured_target = "Septoria tritici"
parameter = "Test G disease control rating"
assay_result = "0* %"

[[record]]
smiles_repr = "COc1ccc(F)c(-c2c(Cl)nc(C)n2-c2ccc(F)cc2)c1F"
measured_target = "Septoria tritici"
parameter = "Test G disease control rating"
assay_result = "93* %"


----------
- Test system: Puccinia recondita f. sp. tritici
- MEASUREMENT DESCRIPTION: Test H: wheat leaf rust, test suspension sprayed after inoculation of wheat seedlings, visual disease rating
- Format: in vivo
- REPORTED CONDITIONS: 200 ppm; 100 = 100% disease control, 0 = no control relative to controls
PARAMETER: Test H disease control rating (%)

[[record]]
compound = "Fc1cc(-n2c(Cl)nc(CCl)c2-c2ccc(Br)cn2)ccc1Cl [compound 357]"
parameter = "Test H disease control rating"
unit_descriptor = "%"
assay_result = 0

[[record]]
compound = "Fc1cccc(F)c1-c1c(Cl)nc(Cl)n1-c1ccc(Cl)nc1 [compound 592]"
parameter = "Test H disease control rating"
unit_descriptor = "%"
assay_result = 100

[[record]]
compound = "COc1cc(F)c(-c2c(Cl)nc(Cl)n2-c2cccnc2Cl)c(F)c1 [compound 513]"
parameter = "Test H disease control rating"
unit_descriptor = "%"
assay_result = 100

[[record]]
compound = "COc1cc(F)c(-c2c(Cl)nc(Cl)n2-c2cncc(Br)c2)c(F)c1 [compound 678]"
parameter = "Test H disease control rating"
unit_descriptor = "%"
assay_result = 100

[[record]]
compound = "Cc1nc(Cl)n(-c2ccc(Cl)c(F)c2)c1-c1ccnc(F)c1 [compound 323]"
parameter = "Test H disease control rating"
unit_descriptor = "%"
assay_result = 70

[[record]]
compound = "COc1ccc(F)c(-c2c(Cl)nc(C)n2-c2ccc(Cl)c(F)c2)c1F [compound 393]"
parameter = "Test H disease control rating"
unit_descriptor = "%"
assay_result = 79

[[record]]
compound = "COc1ccc(F)c(-c2c(Cl)nc(C)n2-c2cccc(OC(F)F)c2)c1F [compound 426]"
parameter = "Test H disease control rating"
unit_descriptor = "%"
assay_result = 27

[[record]]
compound = "COc1ccc(F)c(-c2c(Cl)nc(Cl)n2-c2ccc(Cl)nc2)c1F [compound 709]"
parameter = "Test H disease control rating"
unit_descriptor = "%"
assay_result = 100

[[record]]
compound = "Fc1cc(-n2c(Cl)nc(Cl)c2-c2cncc(Br)c2)ccc1Cl [compound 486]"
parameter = "Test H disease control rating"
unit_descriptor = "%"
assay_result = 0

[[record]]
compound = "COc1ccc(-n2c(Cl)nc(Cl)c2-c2c(F)cccc2F)cn1 [compound 621]"
parameter = "Test H disease control rating"
unit_descriptor = "%"
assay_result = 100

[[record]]
compound = "COc1cc(OC)cc(-c2c(Br)nc(C)n2-c2c(F)cc([N+](=O)[O-])cc2F)c1 [compound 651]"
parameter = "Test H disease control rating"
unit_descriptor = "%"
assay_result = 0

[[record]]
compound = "COc1ccc(F)c(-c2c(Cl)nc(Br)n2-c2ccc(Cl)c(F)c2)c1F [compound 317]"
parameter = "Test H disease control rating"
unit_descriptor = "%"
assay_result = 17

[[record]]
compound = "COc1cc(F)c(-c2c(Cl)nc(C)n2-c2ccc(OC(F)F)cc2)c(F)c1 [compound 569]"
parameter = "Test H disease control rating"
unit_descriptor = "%"
assay_result = 84

[[record]]
compound = "N#Cc1ccc(F)c(-c2c(Cl)ncn2-c2ccc(F)cc2)c1F [compound 656]"
parameter = "Test H disease control rating"
unit_descriptor = "%"
assay_result = 9

[[record]]
compound = "COc1ccc(F)c(-c2c(Cl)nc(C)n2-c2ccc(Cl)c(C)c2)c1F [compound 425]"
parameter = "Test H disease control rating"
unit_descriptor = "%"
assay_result = 0

[[record]]
compound = "COc1cc(F)c(-c2c(Cl)nc(C)n2-c2ccc(SC#N)cc2)c(F)c1 [Compound 741]"
parameter = "Test H disease control rating"
unit_descriptor = "%"
assay_result = 0

[[record]]
compound = "Fc1cccc(-n2cnc(Cl)c2-c2c(F)ccc(F)c2F)c1 [compound 364]"
parameter = "Test H disease control rating"
unit_descriptor = "%"
assay_result = 0

[[record]]
compound = "Cc1nc(Cl)c(-c2c(F)cccc2F)n1-c1ccc(SCCl)cc1 [compound 529]"
parameter = "Test H disease control rating"
unit_descriptor = "%"
assay_result = 9

[[record]]
compound = "COc1ccc(F)c(-c2c(Cl)nc(Cl)n2-c2ccc(Cl)c(F)c2)c1F [compound 392]"
parameter = "Test H disease control rating"
unit_descriptor = "%"
assay_result = 60

[[record]]
compound = "Fc1ccc(-n2c(Cl)nc(Br)c2-c2ccc(Cl)c(F)c2)c(Cl)c1 [compound 326]"
parameter = "Test H disease control rating"
unit_descriptor = "%"
assay_result = 67

[[record]]
compound = "COc1cc(F)c(-c2c(Cl)nc(Cl)n2-c2ccc(OC)nc2)c(F)c1 [compound 516]"
parameter = "Test H disease control rating"
unit_descriptor = "%"
assay_result = 100

[[record]]
compound = "Cc1nc(Cl)n(-c2ccc(Cl)c(F)c2)c1-c1sc(Cl)nc1Cl [compound 381]"
parameter = "Test H disease control rating"
unit_descriptor = "%"
assay_result = 0

[[record]]
compound = "N#Cc1ccc(-n2cnc(Cl)c2-c2c(F)ccc(C#N)c2F)cc1 [compound 387]"
parameter = "Test H disease control rating"
unit_descriptor = "%"
assay_result = 0

[[record]]
compound = "COc1ccc(F)c(-c2c(Cl)nc(Br)n2-c2cccc(OC(F)F)c2)c1F [compound 402]"
parameter = "Test H disease control rating"
unit_descriptor = "%"
assay_result = 0

[[record]]
compound = "Cc1nc(Br)c(Cc2c(F)cc(F)cc2F)n1-c1cc(Cl)cc(Cl)c1 [compound 541]"
parameter = "Test H disease control rating"
unit_descriptor = "%"
assay_result = 0

[[record]]
compound = "Cc1nc(Br)n(-c2ccc(Cl)nc2)c1-c1c(F)ccc(C#N)c1F [compound 715]"
parameter = "Test H disease control rating"
unit_descriptor = "%"
assay_result = 100

[[record]]
compound = "COc1cc(F)c(-c2c(Cl)nc(Cl)n2-c2ccc(C)cc2)c(F)c1Cl [compound 405]"
parameter = "Test H disease control rating"
unit_descriptor = "%"
assay_result = 0

[[record]]
compound = "Cc1ncn(-c2ccc(Cl)c(F)c2)c1-c1sc(Cl)nc1Cl [compound 377]"
parameter = "Test H disease control rating"
unit_descriptor = "%"
assay_result = 0

[[record]]
compound = "COc1cc(F)c(-c2c(Cl)nc(Br)n2-c2ccccc2)c(F)c1Br [compound 429]"
parameter = "Test H disease control rating"
unit_descriptor = "%"
assay_result = 0

[[record]]
compound = "COc1cc(Cl)cc(Cl)c1-c1c(Cl)nc(Cl)n1-c1ccc(Cl)c(F)c1 [compound 438]"
parameter = "Test H disease control rating"
unit_descriptor = "%"
assay_result = 0

[[record]]
compound = "COc1cc(F)c(-c2c(Cl)nc(Cl)n2-c2cccc(OC(F)F)c2)c(F)c1 [compound 565]"
parameter = "Test H disease control rating"
unit_descriptor = "%"
assay_result = 97

[[record]]
compound = "Fc1cccc(-n2c(Br)nc(Cl)c2-c2c(F)cc(F)cc2F)c1 [compound 367]"
parameter = "Test H disease control rating"
unit_descriptor = "%"
assay_result = 9

[[record]]
compound = "Cc1nc(Cl)c(-c2c(F)cc(F)cc2F)n1-c1ccc(OC(F)F)cc1 [compound 610]"
parameter = "Test H disease control rating"
unit_descriptor = "%"
assay_result = 100

[[record]]
compound = "COc1cc(F)c(-c2c(Cl)nc(Cl)n2-c2cc(C)cnc2Cl)c(F)c1 [compound 677]"
parameter = "Test H disease control rating"
unit_descriptor = "%"
assay_result = 100

[[record]]
compound = "COc1ccc(F)c(-c2c(Cl)ncn2-c2ccc(C#N)cc2)c1F [compound 527]"
parameter = "Test H disease control rating"
unit_descriptor = "%"
assay_result = 37

[[record]]
compound = "Fc1ccc(F)c(-c2c(Br)ncn2-c2ccc(Cl)cc2)c1F [compound 330]"
parameter = "Test H disease control rating"
unit_descriptor = "%"
assay_result = 9

[[record]]
compound = "COc1ccc(F)c(-c2c(Cl)nc(Br)n2-c2ccc(Br)cc2)c1F [compound 563]"
parameter = "Test H disease control rating"
unit_descriptor = "%"
assay_result = 0

